Molecular target: T1, soluble KDR extracellular domain (ECD) (Calbiochem) (human, UniProt P35968 20-764)
T1 construct: extracellular domain; Bought protein; also called KDR-ECD; VEGF Receptor 2 D1-7, Cat. #676490
T1 sequence (P35968 20-764): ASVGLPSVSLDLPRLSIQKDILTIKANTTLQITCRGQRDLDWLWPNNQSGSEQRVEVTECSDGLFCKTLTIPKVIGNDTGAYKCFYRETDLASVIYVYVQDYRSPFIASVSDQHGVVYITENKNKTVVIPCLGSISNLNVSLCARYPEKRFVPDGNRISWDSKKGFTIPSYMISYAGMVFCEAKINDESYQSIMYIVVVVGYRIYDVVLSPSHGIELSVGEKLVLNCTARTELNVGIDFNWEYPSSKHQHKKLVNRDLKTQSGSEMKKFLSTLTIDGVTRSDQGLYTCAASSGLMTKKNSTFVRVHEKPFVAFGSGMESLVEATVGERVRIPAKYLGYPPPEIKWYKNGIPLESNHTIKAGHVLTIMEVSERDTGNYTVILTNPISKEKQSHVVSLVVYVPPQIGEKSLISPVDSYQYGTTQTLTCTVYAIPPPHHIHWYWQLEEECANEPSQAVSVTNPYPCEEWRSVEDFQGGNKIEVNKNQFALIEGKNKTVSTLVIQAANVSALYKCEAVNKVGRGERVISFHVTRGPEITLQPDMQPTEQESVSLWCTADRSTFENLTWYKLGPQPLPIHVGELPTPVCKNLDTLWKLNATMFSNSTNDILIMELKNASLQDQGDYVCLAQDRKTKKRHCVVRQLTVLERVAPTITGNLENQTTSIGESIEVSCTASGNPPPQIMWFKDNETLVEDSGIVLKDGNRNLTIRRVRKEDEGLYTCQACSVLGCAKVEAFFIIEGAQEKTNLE
Assay: Limited Antigen ELISA, KDR coat 50 ng/mL, supernatant 1:25
Readout: ELISA reading
Keep the answer to the number alone.

Q) What value of ELISA reading has been recorded for this entry: 30D7 (antibody, V domains shown, Fully human mAb from XenoMouse hybridoma, tested as hybridoma supernatant) VH: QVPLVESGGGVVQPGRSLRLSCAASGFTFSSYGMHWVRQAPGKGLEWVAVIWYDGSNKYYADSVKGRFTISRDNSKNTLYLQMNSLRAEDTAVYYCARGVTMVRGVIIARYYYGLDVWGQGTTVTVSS VL: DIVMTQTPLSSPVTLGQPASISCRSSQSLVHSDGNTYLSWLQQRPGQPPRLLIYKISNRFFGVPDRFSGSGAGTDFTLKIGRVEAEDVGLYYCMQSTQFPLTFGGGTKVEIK
A) 2.93

Q) What value of ELISA reading has been recorded for this entry: 1G6 (antibody, V domains shown, Fully human mAb from XenoMouse hybridoma, tested as hybridoma supernatant) VH: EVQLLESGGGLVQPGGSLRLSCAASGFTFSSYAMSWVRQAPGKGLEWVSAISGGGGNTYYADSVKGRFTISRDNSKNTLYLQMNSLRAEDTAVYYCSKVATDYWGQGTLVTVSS VL: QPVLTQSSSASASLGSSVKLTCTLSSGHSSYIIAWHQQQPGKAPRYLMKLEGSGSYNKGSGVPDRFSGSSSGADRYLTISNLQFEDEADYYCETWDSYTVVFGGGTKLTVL
A) 1.38

Q) What value of ELISA reading has been recorded for this entry: 29A3 (antibody, V domains shown, Fully human mAb from XenoMouse hybridoma, tested as hybridoma supernatant) VH: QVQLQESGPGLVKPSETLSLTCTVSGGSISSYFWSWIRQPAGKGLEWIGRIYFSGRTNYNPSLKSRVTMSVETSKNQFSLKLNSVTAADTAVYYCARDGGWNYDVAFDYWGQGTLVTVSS VL: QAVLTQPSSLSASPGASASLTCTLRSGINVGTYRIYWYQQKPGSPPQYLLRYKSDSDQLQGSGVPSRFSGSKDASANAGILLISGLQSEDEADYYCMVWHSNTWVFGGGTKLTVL
A) 2.27
